assay: chemical genetic growth profiling, strain panel (AID 1159580);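 note: tested at 20 µM; growth read once vehicle control cultures reached saturation at 30 °C; 1 = growth at the plate median or of vehicle wells; lower values mean less growth of the strain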; conditions: S. cerevisiae deletion strains, growth OD, locus YJL187C, strain SWE1 (second series), hits give low values
In all, about 5,500 compounds went through this assay and about 2,000 (36%) were called active. Another 18% or so got no clear call; they are omitted. Some of the results follow.
Each entry below carries its recorded normalized growth.

{"molecule": "CNC1(C)C2CCC(C2)C1(C)C (stereo not drawn)", "normalized growth": 0.967}
{"molecule": "COc1ccc(C(=O)c2ccccc2)c(O)c1", "normalized growth": 0.943}
{"molecule": "NC[C@@H]1O[C@H](O[C@@H]2[C@@H](CO)OC(O[C@@H]3[C@@H](O)[C@H](N)C[C@H](N)[C@H]3OC3O[C@H](CN)[C@@H](O)[C@H](O)[C@H]3N)[C@@H]2O)[C@H](N)[C@@H](O)[C@@H]1O (stereo partly drawn)", "normalized growth": 1.01}
{"molecule": "CC(C)[N+](C)(CCOC(=O)C1c2ccccc2Oc2ccccc21)C(C)C", "normalized growth": 1}
{"molecule": "N#Cc1c(Cl)c(Cl)c(Cl)c(C#N)c1Cl", "normalized growth": 0.994}
{"molecule": "COc1ccc2c(c1)[C@@]1(C)CCC(=O)C[C@H]1CC2", "normalized growth": 0.998}
{"molecule": "COc1ccc2c(c1)C1(C)CCC(=O)CC1CC2 (stereo not drawn)", "normalized growth": 0.979}
{"molecule": "CC(C(=O)O)c1ccc2c(c1)[nH]c1ccc(Cl)cc12 (stereo not drawn)", "normalized growth": 1.01}
{"molecule": "COc1cccc2c1CCC1CC(=O)CCC21C (stereo not drawn)", "normalized growth": 0.963}
{"molecule": "CCCCOc1ccc(CC(=O)NO)cc1", "normalized growth": 0.991}
{"molecule": "Cc1cc(=O)c2c(O)c(C)c(O)cc2o1", "normalized growth": 0.971}
{"molecule": "COc1ccc(C[C@H]2NC[C@H](O)[C@H]2OC(C)=O)cc1", "normalized growth": 0.32}
{"molecule": "COc1cc(O)c2c(=O)cc(C)oc2c1CC=C(C)C", "normalized growth": 0.943}

###

assay: chemical genetic growth profiling, strain panel (AID 1159580);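 note: tested at 20 µM; growth read once vehicle control cultures reached saturation at 30 °C; 1 = growth at the plate median or of vehicle wells; lower values mean less growth of the strain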; conditions: S. cerevisiae deletion strains, growth OD, locus YNL209W, strain ssb2, hits give low values
Screen size: about 5,500 compounds; about 2,000 (36%) were called active. Inconclusive results (about 18%) are left out. Some of the results follow.
Each entry below carries its recorded normalized growth.

{"compound": "CC(C)N(C(=O)CCl)c1ccccc1", "normalized growth": 1.01}
{"compound": "O=C1CC(c2ccc(O)c(O)c2)Oc2cc(O)cc(O)c21 (stereo not drawn)", "normalized growth": 1}
{"compound": "CCCCCC(=O)O[C@]1(C(C)=O)CCC2C3CCC4=CC(=O)CC[C@]4(C)C3CC[C@@]21C (stereo partly drawn)", "normalized growth": 1}
{"compound": "CC(=O)O[C@]1(C(C)=O)CCC2C3C[C@H](C)C4=CC(=O)CC[C@]4(C)C3CC[C@@]21C (stereo partly drawn)", "normalized growth": 0.958}
{"compound": "CCCCCCCC/C=C/CCCCCCCCOP(=O)([O-])OCC[N+](C)(C)C", "normalized growth": 0.0577}
{"compound": "C[N+](C)(C)CCOP(=O)([O-])OP(=O)(O)OC[C@H]1OC(n2ccc(N)nc2=O)[C@H](O)[C@@H]1O (stereo partly drawn)", "normalized growth": 1}
{"compound": "O=C1C[C@@H](c2ccc(O)cc2)Oc2cc(O)cc(O)c21", "normalized growth": 0.966}
{"compound": "CC1(C)S[C@@H]2[C@H](NC(=O)[C@H](NC(=O)N3CCNC3=O)c3ccccc3)C(=O)N2C1C(=O)O (stereo partly drawn)", "normalized growth": 0.989}
